target: T1, streptavidin (UniProt P22629 37-163, limits assumed); assay: selection from the X4CX3CX4 library displayed in loop 2 of OmpX
T1 construct: Used as phycoerythrin conjugate or on coated beads; also called SA; streptavidin-phycoerythrin
T1 sequence (P22629 37-163 limits assumed): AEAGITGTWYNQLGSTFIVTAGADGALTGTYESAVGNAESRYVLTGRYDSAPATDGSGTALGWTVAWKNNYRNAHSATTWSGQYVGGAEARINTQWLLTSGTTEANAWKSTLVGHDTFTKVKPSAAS
property: binding result

[
  {
    "binder": "KALVCQNVCYTMS [SEQ ID NO 278]",
    "assayValue": "binds"
  },
  {
    "binder": "TRLICANLCWYAE [SEQ ID NO 284]",
    "assayValue": "binds"
  },
  {
    "binder": "PTLICMNVCFYDQ [SEQ ID NO 281]",
    "assayValue": "binds"
  },
  {
    "binder": "QSLVCQNVCWMRE [SEQ ID NO 276]",
    "assayValue": "binds"
  }
]

Could you tell me binding result for each of these binders? They are listed below.
1. SHWFCVNVCFRIQ [SEQ ID NO 282]
2. SKWICQNVCYPGL [SEQ ID NO 279]
3. GTLVCMNFCYLSK [SEQ ID NO 280]
4. CMIICQNVCYRKC [SEQ ID NO 277]

A)
1: binds; 2: binds; 3: binds; 4: binds

Q) May I ask what binding result has been recorded for TYSWCANVCMHYS [SEQ ID NO 283] ?
A) binds
